B1: POU domain, class 4, transcription factor 2, residues 256 to 327; numbered along this chain, Q12837 (parent)
chain: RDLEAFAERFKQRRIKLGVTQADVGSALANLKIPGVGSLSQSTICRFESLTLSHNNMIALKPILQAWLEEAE

# Variants of: B1
# protocol: abundance fitness (aPCA) (normalised: wild type 0, dead -1); higher = more abundant; growth selection in yeast, the domain comes from the species named
# measurementParameters: Homo sapiens
Give Y when the value for abundance fitness is at least -0.3. Give N when it is less.

Solved cases (3 shown):
>  <entrySequence>
RDLEAFAERFKQRRIKLGVTQADVGSALANLKIPGVGSLSQSTICRFESLTLSHINMIALKPILQAWLEEAE [N55I]

>  <category>
Y

$$$$
>  <entrySequence>
RDLEAFAERFKQYRIKLGVTQADVGSALANLKIPGVGSLSQSTICRFESLTLSHNNMIALKPILQAWLEEAE [R13Y]

>  <category>
N

$$$$
>  <entrySequence>
RDLEAFAERFKQRRIKLGVTQADVGSALANLKIPYVGSLSQSTICRFESLTLSHNNMIALKPILQAWLEEAE [G35Y]

>  <category>
N

$$$$

[ask] In plain terms: is recorded abundance fitness at least -0.3 for RDLEAFAERFKQRRIKLGVTQADVGSALANLKIPGVGSLSQSTICRFESLTLSHNNMIALKPFLQAWLEEAE [I63F] ?
[reply] Y

[ask] Hi team, for RDLEAFAERFKQRRSKLGVTQADVGSALANLKIPGVGSLSQSTICRFESLTLSHNNMIALKPILQAWLEEAE [I15S] , is the recorded abundance fitness at or above -0.3?
[reply] Y

[ask] API: above_or_equal(metric=abundance fitness, cutoff=-0.3) for item RDLEAFAERFKQRRWKLGVTQADVGSALANLKIPGVGSLSQSTICRFESLTLSHNNMIALKPILQAWLEEAE [I15W]
[reply] N

[ask] Determine whether this variant has abundance fitness no lower than -0.3: RDLEAFAERFKQRRIKLGVTQADVGSALANLKIPGVGSLSQSTICRFESLTLSHNNMIALKPPLQAWLEEAE [I63P]
[reply] N

[ask] Reported abundance fitness reaches at least -0.3 for RDLEAFAERFKQRRIKLGVTQADVGSALANLKIPGVGSLSQSTICRFESLTLSHNNMIALKPILQAWPEEAE [L68P] ?
[reply] N

[ask] Assess whether reported abundance fitness for RDLEAFAERFKQRRIKLGVTQADVGSARANLKIPGVGSLSQSTICRFESLTLSHNNMIALKPILQAWLEEAE [L28R] sits at -0.3 or higher.
[reply] N

From: the Human Domainome abundance scans (Beltran et al. 2025)
